Assay context: in methanol, 303.1 K
Reported solubility (mole fraction) values for the following compounds.

- Query smiles: "Cc1c(O)c(=O)ccn1C"
  solubility (mole fraction): 0.0052
- Query smiles: "C=CC1=C(C(=O)O)N2C(=O)[C@@H](NC(=O)/C(=N\\OCC(=O)O)c3csc(N)n3)[C@H]2SC1.O.O.O"
  solubility (mole fraction): 0.0132

====

Assay context: in ethyl acetate, 313.1 K
Reported solubility (mole fraction) values for the following molecules.

- Query smiles: "C=CC1=C(C(=O)O)N2C(=O)[C@@H](NC(=O)/C(=N\\OCC(=O)O)c3csc(N)n3)[C@H]2SC1.O.O.O"
  solubility (mole fraction): 0.000175
- Query smiles: "Cc1c(O)c(=O)ccn1C"
  solubility (mole fraction): 0.000218

====

Assay context: in water, 323.1 K

- Query smiles: "Cc1c(O)c(=O)ccn1C"
  solubility (mole fraction): 0.00532
- Query smiles: "C=CC1=C(C(=O)O)N2C(=O)[C@@H](NC(=O)/C(=N\\OCC(=O)O)c3csc(N)n3)[C@H]2SC1.O.O.O"
  solubility (mole fraction): "5.09e-05"

====

Reported solubility (mole fraction) values for the following compounds.
Assay context: in methanol, 283.1 K
Readout name: solubility (mole fraction)

- Query smiles: "Cc1c(O)c(=O)ccn1C"
  Experimental result: 0.00194
- Query smiles: "C=CC1=C(C(=O)O)N2C(=O)[C@@H](NC(=O)/C(=N\\OCC(=O)O)c3csc(N)n3)[C@H]2SC1.O.O.O"
  Experimental result: 0.00635

====

Reported solubility (mole fraction) values for the following compounds.
Assay context: in acetonitrile, 323.1 K

- Query smiles: "Cc1c(O)c(=O)ccn1C"
  solubility (mole fraction): 0.00137
- Query smiles: "C=CC1=C(C(=O)O)N2C(=O)[C@@H](NC(=O)/C(=N\\OCC(=O)O)c3csc(N)n3)[C@H]2SC1.O.O.O"
  solubility (mole fraction): 0.000292

====

Reported solubility (mole fraction) values for the following compounds.
Assay context: in acetonitrile, 303.1 K

- Query smiles: "Cc1c(O)c(=O)ccn1C"
  solubility (mole fraction): 0.000599
- Query smiles: "C=CC1=C(C(=O)O)N2C(=O)[C@@H](NC(=O)/C(=N\\OCC(=O)O)c3csc(N)n3)[C@H]2SC1.O.O.O"
  solubility (mole fraction): 0.000127

====

Assay context: in water, 303.1 K
Reported solubility (mole fraction) values for the following compounds.
Readout name: solubility (mole fraction)

- Query smiles: "C=CC1=C(C(=O)O)N2C(=O)[C@@H](NC(=O)/C(=N\\OCC(=O)O)c3csc(N)n3)[C@H]2SC1.O.O.O"
  Experimental result: "2.02e-05"
- Query smiles: "Cc1c(O)c(=O)ccn1C"
  Experimental result: 0.0031

====

Reported solubility (mole fraction) values for the following molecules.
Assay context: in methanol, 323.1 K

- Query smiles: "C=CC1=C(C(=O)O)N2C(=O)[C@@H](NC(=O)/C(=N\\OCC(=O)O)c3csc(N)n3)[C@H]2SC1.O.O.O"
  solubility (mole fraction): 0.0309
- Query smiles: "Cc1c(O)c(=O)ccn1C"
  solubility (mole fraction): 0.0114

====

Assay context: in ethyl acetate, 303.1 K
Reported solubility (mole fraction) values for the following compounds.

- Query smiles: "Cc1c(O)c(=O)ccn1C"
  solubility (mole fraction): 0.000155
- Query smiles: "C=CC1=C(C(=O)O)N2C(=O)[C@@H](NC(=O)/C(=N\\OCC(=O)O)c3csc(N)n3)[C@H]2SC1.O.O.O"
  solubility (mole fraction): 0.000129
